Biological target: GABA transporter 4 (Mus musculus)
Sequence (whole entry): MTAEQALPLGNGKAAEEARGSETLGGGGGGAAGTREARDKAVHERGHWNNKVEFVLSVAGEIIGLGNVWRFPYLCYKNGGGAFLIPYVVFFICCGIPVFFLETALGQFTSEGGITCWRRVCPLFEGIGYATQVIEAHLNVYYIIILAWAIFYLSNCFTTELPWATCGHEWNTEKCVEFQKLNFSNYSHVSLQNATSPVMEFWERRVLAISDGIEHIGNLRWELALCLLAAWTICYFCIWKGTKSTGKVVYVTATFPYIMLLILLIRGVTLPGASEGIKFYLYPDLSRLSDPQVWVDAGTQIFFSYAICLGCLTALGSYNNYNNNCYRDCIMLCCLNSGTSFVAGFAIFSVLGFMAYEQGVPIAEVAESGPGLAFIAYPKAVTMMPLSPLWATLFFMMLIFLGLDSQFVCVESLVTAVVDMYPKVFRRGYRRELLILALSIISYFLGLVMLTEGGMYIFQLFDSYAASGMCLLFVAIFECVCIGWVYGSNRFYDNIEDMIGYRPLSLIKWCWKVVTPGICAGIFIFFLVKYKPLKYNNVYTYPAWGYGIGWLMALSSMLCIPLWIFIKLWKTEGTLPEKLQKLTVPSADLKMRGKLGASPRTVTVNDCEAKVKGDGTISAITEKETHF
Assay: Residual mouse GAT4-mediated [3H]GABA uptake expressed in human HEK cells at 1 mM
Conditions: HEK293
property_label: residual activity (%)

                  smiles_record                  system_under_test  number
0  CC(C)(C)CC(C)(C)n1nnnc1CNCCN  GABA transporter 4 (Mus musculus)    92.5
1         C1CN(Cc2nnn[nH]2)CCO1  GABA transporter 4 (Mus musculus)    90.8
2                      NCC(=O)O  GABA transporter 4 (Mus musculus)    69.7
3                  NCc1nnn[nH]1  GABA transporter 4 (Mus musculus)    78.9
4               NCCNCc1nnn[nH]1  GABA transporter 4 (Mus musculus)    60.7
5         C1CN(Cc2nnn[nH]2)CCN1  GABA transporter 4 (Mus musculus)     101
